System: BT-549 breast
assayName: NCI tumour cell line growth inhibition, 48 h
measurementKind: TGI (µM)
Expressed in µM, but write only the number.

Measured TGI, O=C(Nc1ccc(F)cc1)c1cc2ccc(O)cc2oc1=Nc1ccccc1F : 43.5

Measured TGI, Oc1[nH]c2ccccc2c1N=NC(=S)N1CCCC1 : 22.8

Measured TGI, CCCc1ccc(OCC(=O)N/N=C/c2c(-c3ccccc3)[nH]c3ccccc23)cc1 : 34

Measured TGI, O=C(CC1(O)C(=O)Nc2c(Cl)ccc(Cl)c21)c1ccc(C2CC2)cc1 (stereo not given) : 11

Measured TGI, NC(N)=NS(=O)(=O)c1ccc(NNc2c3ccccc3nc3c(C(=O)Nc4ccc(S(N)(=O)=O)cc4)cccc23)cc1 : 70.2

* * *

Kindly supply the reported TGI values for the records listed here.
Test system: MALME-3M melanoma
assayName: NCI tumour cell line growth inhibition, 48 h
Where a SMILES comes first, the peptide text is derived from it. The star is where a group is joined. Boc = CC(C)(C)OC(=O)*

The compound O=C(/C=C/c1cccc(B(O)O)c1)c1cccc(B(O)O)c1 , when measured on MALME-3M melanoma, yielded TGI of 6.01 µM

The compound CCOc1cc(NC(C)=O)ccc1C(=O)NN1C(=O)CSC1c1ccc(O)c(OC)c1 (configuration not stated) , when measured on MALME-3M melanoma, yielded TGI of > 100 µM

The compound NC(=O)CCC(NC(=O)C(F)(F)F)C(=O)O (configuration not stated) , when measured on MALME-3M melanoma, yielded TGI of > 100 µM

The compound COc1c2ccoc2c(S(=O)(=O)Nc2ccc(Cl)cc2)c2oc(C)cc(=O)c12 , when measured on MALME-3M melanoma, yielded TGI of > 100 µM

The compound COC(=O)CCc1ccc2c(c1)CC1(C2)Cc2ccc3c(c2C1)CCC3 (configuration not stated) , when measured on MALME-3M melanoma, yielded TGI of > 100 µM

The compound O=C(N/C(=C/c1ccc(Cl)cc1)c1nc2ccccc2c(=O)n1Nc1ccc([N+](=O)[O-])cc1[N+](=O)[O-])c1ccccc1 , when measured on MALME-3M melanoma, yielded TGI of > 100 µM

The compound Cc1cc(=O)[nH]c(CNC(=O)Cc2ccccc2)n1 , when measured on MALME-3M melanoma, yielded TGI of > 100 µM

The compound COc1cccc(/C=C2\C(=O)N(C(=O)Cc3ccccc3)N=C2C)c1 , when measured on MALME-3M melanoma, yielded TGI of > 100 µM

The compound COc1ccc(C2S/C(=C\c3cccc(O)c3)C(=O)N2NC(=O)Cc2ccccc2)cc1 (configuration not stated) , when measured on MALME-3M melanoma, yielded TGI of > 100 µM

The compound COc1cnc2c(c1)C(=O)c1c-2n(CCCN2CCN(CCO)CC2)c(=O)c2cc([N+](=O)[O-])ccc12 , when measured on MALME-3M melanoma, yielded TGI of 3.33 µM

The compound O=[N+]([O-])c1ccc(N2N=C(c3ccc4ccccc4c3O)CC2c2ccc(Cl)cc2Cl)c([N+](=O)[O-])c1 (configuration not stated) , when measured on MALME-3M melanoma, yielded TGI of > 100 µM

The compound O=C(NO)c1cnc(N2CCN(S(=O)(=O)c3ccc4ccccc4c3)CC2)nc1 , when measured on MALME-3M melanoma, yielded TGI of 12.6 µM

The compound COc1ccc(C2C3=C(COC3=O)N(CCO)c3cc4c(cc32)OCCO4)cc1OC (configuration not stated) , when measured on MALME-3M melanoma, yielded TGI of > 50 µM

The compound CCOC(=O)C(CC(C)C)NC(=O)C(Cc1ccccc1)NC(=O)CNC(=O)OC(C)(C)C (stereo not drawn) (Boc-Gly-Phe-Leu-OEt; configuration not given here) , when measured on MALME-3M melanoma, yielded TGI of 39.4 µM

The compound CNCCOc1nc2c3cnccc3cc(-c3cc(OC)c(OC)c(OC)c3)c2c2ccncc12 , when measured on MALME-3M melanoma, yielded TGI of 0.194 µM

The compound COC(=O)C1=Cc2c(OC)cc(OC)c(OC)c2[C@H](c2cc(OC)c(OC)cc2OC)C1C(=O)OC (some centres not stated) , when measured on MALME-3M melanoma, yielded TGI of > 100 µM

The compound COc1ccc2c(c1)c1c3c(ccc4ncn2c43)N(CCN(C)C)CCN=1 , when measured on MALME-3M melanoma, yielded TGI of 2.67 µM

The compound COC1=CC(=O)c2ccccc2C1(C)C1=NC(C)(C)CO1 (configuration not stated) , when measured on MALME-3M melanoma, yielded TGI of > 100 µM

The compound CCOC(=O)CNC(=O)C(CSC(=O)N(C)O)NC(=O)CCC(N)C(=O)O (configuration not stated) , when measured on MALME-3M melanoma, yielded TGI of > 2000 µM

The compound Nc1cnc2c(c1)c(=O)nc1n2CCS1 , when measured on MALME-3M melanoma, yielded TGI of > 100 µM

The compound CP(C)C.[Ag][I] , when measured on MALME-3M melanoma, yielded TGI of > 100 µM

The compound O=C(CCc1cccc(O)c1)NCCc1cccc(OCc2ccccc2)c1 , when measured on MALME-3M melanoma, yielded TGI of 39.2 µM

The compound CCOC(=O)C(Cc1cn(S(=O)(=O)c2ccc(C)cc2)cn1)P(=O)(OCC)OCC (configuration not stated) , when measured on MALME-3M melanoma, yielded TGI of > 100 µM

The compound COc1ccccc1OC(=O)/C=C/c1ccccc1 , when measured on MALME-3M melanoma, yielded TGI of > 100 µM

The compound Cc1cc(=O)oc2c(CNC(C(=O)O)C(C)O)c(O)ccc12 (configuration not stated) , when measured on MALME-3M melanoma, yielded TGI of > 100 µM

The compound Cc1cc(C)c2[s+]snc2c1 , when measured on MALME-3M melanoma, yielded TGI of > 100 µM

The compound C[n+]1c(-c2ccc(/C=N\NC(=O)c3ccc(C(=O)N/N=C/c4ccc(-c5cn6ccsc6[n+]5C)cc4)cc3)cc2)cn2ccsc21 , when measured on MALME-3M melanoma, yielded TGI of 47.7 µM

The compound O=[N+]([O-])c1cc(/C=N/NS(=O)(=O)c2ccc(F)cc2)c(O)c([N+](=O)[O-])c1 , when measured on MALME-3M melanoma, yielded TGI of > 100 µM

The compound CC(C)(C)c1cc(C(C)(C)C)c2sc(=S)oc2c1O , when measured on MALME-3M melanoma, yielded TGI of 32.1 µM

The compound CCCOCN1COCN=C1NC#N , when measured on MALME-3M melanoma, yielded TGI of > 100 µM

The compound CN(C)CCOc1nc2ccccc2c2c1-c1ccc(Cl)cc1C2=O , when measured on MALME-3M melanoma, yielded TGI of 2.43 µM

The compound c1ccc2nc3cc4c(cc3nc2c1)NC12CCCCC1CC1=C(CCCC1)N42 (configuration not stated) , when measured on MALME-3M melanoma, yielded TGI of 5.33 µM

The compound CC(=O)O/C=C\OC1CCCC1 , when measured on MALME-3M melanoma, yielded TGI of > 100 µM

The compound COc1cccc2c1C(=O)c1c(O)c3c(c(O)c1C2=O)C[C@@](O)(/C(C)=N/NC(=O)c1ccc(Cl)c(Cl)c1)C[C@@H]3OC1CC(N)C(O)C(C)O1 (some centres not stated) , when measured on MALME-3M melanoma, yielded TGI of 0.0838 µM

The compound COC(=O)C(=O)C1CCCCC(C2=NC3NN=C(N)N3C2=O)C1=O (configuration not stated) , when measured on MALME-3M melanoma, yielded TGI of > 100 µM

The compound O=C(/C=C/c1ccc(Cl)c(Cl)c1)C1CCC(Cl)CC1 (configuration not stated) , when measured on MALME-3M melanoma, yielded TGI of 41.1 µM

The compound COc1ccc(-n2c(=O)n(C)c(=O)n2-c2c(C)c(C)c(C)c(C)c2C)cc1 , when measured on MALME-3M melanoma, yielded TGI of > 100 µM

* * *

System: BT-549 breast
assayName: NCI tumour cell line growth inhibition, 48 h
Kindly supply the reported log10 of TGI values for the records listed here.
Please note: log10 values; quantity TGI; unit µM.

The compound O=C1N[C@@H]2c3c(Br)sc(Br)c3C(=O)[C@@H]2N1 , when measured on BT-549 breast, yielded log10 of TGI of 1.72

The compound CCOc1cc(NC(C)=O)ccc1C(=O)NN1C(=O)CSC1c1ccc(O)c(OC)c1 (centres undefined) , when measured on BT-549 breast, yielded log10 of TGI of 1.99

The compound COC(=O)Nc1nc2ccc(Sc3ccccc3)cc2[nH]1 , when measured on BT-549 breast, yielded log10 of TGI of 1.27

The compound CC[C@H](C)[C@H](NC(=O)C12CC(NC(C)=O)(C1)C2)C(=O)N(C)[C@H](C[C@@H](OC(C)=O)c1nc(C(=O)N[C@@H](Cc2ccccc2)C[C@H](C)C(=O)OC)cs1)C(C)C , when measured on BT-549 breast, yielded log10 of TGI of 0.53

The compound COc1ccc(-n2sc(=O)n(Cc3ccc(COC(=O)C(C)c4ccc(CC(C)C)cc4)cc3)c2=O)cc1 (centres undefined) , when measured on BT-549 breast, yielded log10 of TGI of 0.97

The compound COc1cnc2c(c1)C(=O)c1c-2n(CCCN2CCN(CCO)CC2)c(=O)c2cc([N+](=O)[O-])ccc12 , when measured on BT-549 breast, yielded log10 of TGI of 1.28

The compound CCCCCCC1N=C(N)N=C(N)N1c1ccc(Cl)cc1 (centres undefined) , when measured on BT-549 breast, yielded log10 of TGI of 1.26
